Quick reference for protein stability index among some variants
B1: CDC25A (parent)
chain: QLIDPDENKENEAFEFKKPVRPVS

- Variants of: B1
- assay.summary: protein stability index of a GFP-peptide fusion (GPS, HEK-293T) (PSI 1-6); higher = more stable;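 also: lentivirally expressed fusions sorted by FACS into six bins by GFP to DsRed ratio, PSI derived from sequencing read proportions per bin multiplied by bin number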
- applied.conditions: c terminus: a fixed tail appended
Lab note: jot down the number only; don't add units.

Worked set:
QLIDPDANKENEAFEFKKPVRPVS [E7A] :: 4.25
QLIDPDENKDNEAFEFKKPVRPVS [E10D] :: 3.98
QLIDPDENKENEAFEFKKPGRPVS [V20G] :: 3.97

[ask] Determine from records and report protein stability index for QLIDWDENKENEAFEFKKPVRPVS [P5W]
[reply] 3.51

[ask] Determine from records and report protein stability index for QLNDPDENKENEAFEFKKPVRPVS [I3N]
[reply] 3.6

[ask] Determine from records and report protein stability index for QLIDPDENKENEAFSFKKPVRPVS [E15S]
[reply] 4

Origin of measurements: the supplement of paper PMC10567573
